- TESTED ON: Env of HIV-1 strain REJO4541.67 (HIV-1)
- ASSAY COMMENT: cell-based or functional assay
Let's look at some binders and their measured neutralization IC50.
PARAMETER MEASURED: neutralization IC50

- γ23κ18 (antibody, V domains shown) VH: QIHLVQSGTEVKKPGSSVTVSCKAYGVNTFGLYAVNWVRQAPGQSLEYIGQIWRWKSSASHHFRGRVIISAVDLTGSSPPISSLEIKNLTSDDTAVYFCTTTSTSDYWSGLHHDGVMAFSSWGQGTLISVSA VL: DIQMTQSPSTLSASVGDTVRISCRASQSITGGWLAWYHQRPGKAPRLLIYRGSRLLGGVPSRFSGSAAGADFTLTIANLQAEDFGTFYCQQYDTYPGTFGQGTKVEVKR: 0.061 µg/mL
- γ46κ11 (antibody, V domains shown) VH: QIHLVQSGTEVKKPGSSVTVSCKAYGVNTFGLYAVNWVRQAPGQGLEYIGQIWRWKSSASHHFRGRVLISAVDLTGSSPPISSLEIKNVTSDDTAVYFCTTTSTYDKWSGLHHDGVVAFSSWGQGTLISVSA VL: DIQMTQSPSTLSASVGGTVRISCRASQSITGGWLAWYHQRPGKAPRLLIYRGSRLLGGVPSRFSGSAAGTDFTLTIANLQAEDFGTFYCQQYDTYPGTFGQGTKVEVKR: > 15 µg/mL
- γ22κ11 (antibody, V domains shown) VH: QIHLVQSGTEVKKPGSSVTVSCKAYGVNTFGLYAVNWVRQAPGQSLEYIGQIWRWKSSASHHFRGRVLISAVDLTGPSPPISSLEIKNLTSDDTAVYFCTTTSTYDKWSGLHHDGVMAFSSWGQGTLISVSA VL: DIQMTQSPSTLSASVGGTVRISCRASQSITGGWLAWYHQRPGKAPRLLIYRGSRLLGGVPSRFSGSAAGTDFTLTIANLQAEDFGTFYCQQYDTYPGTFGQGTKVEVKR: > 15 µg/mL
